B1: Triacylglycerol hydrolase DDHD2, residues 389 to 447; numbered along this chain, O94830 (parent)
chain: TLEEDLKKLQLSEFFDIFEKEKVDKEALALCTDRDLQEIGIPLGPRKKILNYFSTRKNS

Variants of: B1
Assay: abundance fitness (aPCA) (normalised: wild type 0, dead -1); higher = more abundant; growth selection in yeast, the domain comes from the species named
Conditions: Homo sapiens

| residue change | abundance fitness |
| --- | --- |
| Y52R | -0.237 |
| C31W | 0.44 |
| P42M | -0.649 |
| R34A | 0.216 |
| R56L | -0.086 |
| E3M | -0.002 |
| F53W | -0.38 |
| E13S | -0.252 |
| L28C | -0.325 |
| P45K | -0.285 |
| L2M | 0.041 |
| I39A | -0.204 |
| D35P | -0.937 |
| V23H | -0.376 |
| P45H | -0.261 |
| E38C | -0.129 |
| L28D | -0.196 |
| L30R | 0.581 |
| C31M | 0.977 |
| P45S | -0.032 |
| E4Y | -0.777 |
| K20W | -0.536 |
| L6C | -0.888 |
| R46E | -0.217 |
| E19F | -0.082 |
| D35N | -0.06 |
| R46D | -0.242 |
| F18D | -0.399 |
| E3C | -0.748 |
| S59L | -0.473 |
| F14H | -0.599 |
| F14T | -0.521 |
| I49H | -0.07 |
| Y52I | -0.387 |
| G44P | -0.079 |
| L50H | -0.087 |
| P45L | -0.496 |
| P42H | -1.06 |
| K7C | -0.294 |
